The reported numbers originate from ChEMBL document CHEMBL1139027.

target: Peroxisome proliferator-activated receptor alpha (Homo sapiens, UniProt Q07869); assay: Transactivation by human PPAR alpha in COS1 cells; format: functional, cell-based, COS-1; settings: read-out: EC50
Sequence (Q07869 whole entry): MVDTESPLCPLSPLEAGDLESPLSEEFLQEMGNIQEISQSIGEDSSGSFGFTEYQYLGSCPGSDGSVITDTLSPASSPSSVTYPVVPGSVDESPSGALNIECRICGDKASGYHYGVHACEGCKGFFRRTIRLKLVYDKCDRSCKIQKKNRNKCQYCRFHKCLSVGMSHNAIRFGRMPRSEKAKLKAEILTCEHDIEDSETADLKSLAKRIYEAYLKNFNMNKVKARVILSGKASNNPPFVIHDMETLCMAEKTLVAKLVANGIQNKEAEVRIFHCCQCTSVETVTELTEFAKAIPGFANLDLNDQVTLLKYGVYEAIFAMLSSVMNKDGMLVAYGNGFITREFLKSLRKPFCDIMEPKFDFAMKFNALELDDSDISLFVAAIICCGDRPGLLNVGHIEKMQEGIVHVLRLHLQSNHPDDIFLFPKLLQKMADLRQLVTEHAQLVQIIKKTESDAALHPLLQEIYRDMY
READOUT_TYPE: EC50 (µM)

- CCC(C)(Oc1ccc(OCCCOc2ccc(Oc3ccc(F)cc3)cc2Cl)cc1)C(=O)O (stereo not given): 0.0025
- CCCc1cc(Oc2ccc(F)cc2)ccc1OCCCOc1ccc(OC(C)(C)C(=O)O)cc1: 0.051
- CC[C@@](C)(Cc1ccc(OCCCOc2ccc3c(C(F)(F)F)cc(=O)oc3c2C)cc1)C(=O)O: 0.01

a = CC[C@](C)(Oc1ccc(OCCCOc2ccc(Oc3ccc(F)cc3)cc2Cl)cc1)C(=O)O
b = CC(C)(Oc1ccc(OCCCOc2ccc(Oc3ccc(F)cc3)cc2Cl)cc1)C(=O)O
Would you let me know which has the greater EC50 value, a or b ? Respond with the label that goes with your answer. b
(b: 0.02 µM, a: 0.003 µM)
